The reported measurements were obtained from patent EP4534554A1.

target_system: T1, MAGE-A1 peptide on HLA-A*02:01 (human)
T1 peptide: KVLEYVIKV
assay_procedure: JKR9 reporter + peptide-loaded T2, 16 h; full-length, on cells
Form field: EC50 of peptide (one value per entry).

binder | value_unit | EC50 of peptide
ht27M1374 (TCR, V domains shown) Valpha: GEDVEQSLFLSVREGDSSVINCTYTDSTDILLYWYKQEPGAGLQLLTYIFSNMDMKQDQRLTVLLNKKDKHLSLRIADTQTGDSAIYFCAGSGGGTDKLIFGTGTRLQVFP Vbeta: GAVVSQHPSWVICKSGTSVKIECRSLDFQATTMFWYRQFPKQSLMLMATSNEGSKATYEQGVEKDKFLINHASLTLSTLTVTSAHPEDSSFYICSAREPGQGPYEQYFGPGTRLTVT | nM | 109
ht27M1436 (TCR, V domains shown) Valpha: GEDVEQSLFLSVREGDSSVINCTYTDSSSTYLYWYKQEPGAGLQLLTYTFWFMDMKQDQRLTVLLNKKDKHLSLRIADTQTGDSAIYFCAGSGGGTDKLIFGTGTRLQVFP Vbeta: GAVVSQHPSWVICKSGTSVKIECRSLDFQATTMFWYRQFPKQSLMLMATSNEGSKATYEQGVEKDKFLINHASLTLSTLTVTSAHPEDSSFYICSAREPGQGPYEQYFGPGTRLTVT | nM | 202
